tested on: human rhabdosarcoma cells; assay: Recoding via quantification of pRB and P53, rhabdosarcoma cells; type: cell-based; conditions: Table 6, peptide in association with PET
This section presents sequences with their documented P53 (%) values.
Value expressed in %; do not type the unit.

Recorded P53 (%), per entry:
- sequence: "RVPSTSSTQVDLNAISVLYF (Non-cyclic GFR-binding peptide) [SEQ ID NO: 217]"
  P53 (%): 24
- sequence: "KIPKASSTQVRLRPVQIRKI (Non-cyclic GFR-binding peptide) [SEQ ID NO: 211]"
  P53 (%): 42
- sequence: "AASKASSSRVELRSVKIAKV (Non-cyclic GFR-binding peptide) [SEQ ID NO: 210]"
  P53 (%): 42

Now turn to the next sequence.
Tell me P53 (%) reported for AASKASSTPTDLNAISTLYF (Non-cyclic GFR-binding peptide) [SEQ ID NO: 216]
27
